target: human serum albumin (Homo sapiens); experiment: Human serum albumin (HSA) binding, chromatographic; assay type: in vitro ADME
Sequence (P02768 25-609): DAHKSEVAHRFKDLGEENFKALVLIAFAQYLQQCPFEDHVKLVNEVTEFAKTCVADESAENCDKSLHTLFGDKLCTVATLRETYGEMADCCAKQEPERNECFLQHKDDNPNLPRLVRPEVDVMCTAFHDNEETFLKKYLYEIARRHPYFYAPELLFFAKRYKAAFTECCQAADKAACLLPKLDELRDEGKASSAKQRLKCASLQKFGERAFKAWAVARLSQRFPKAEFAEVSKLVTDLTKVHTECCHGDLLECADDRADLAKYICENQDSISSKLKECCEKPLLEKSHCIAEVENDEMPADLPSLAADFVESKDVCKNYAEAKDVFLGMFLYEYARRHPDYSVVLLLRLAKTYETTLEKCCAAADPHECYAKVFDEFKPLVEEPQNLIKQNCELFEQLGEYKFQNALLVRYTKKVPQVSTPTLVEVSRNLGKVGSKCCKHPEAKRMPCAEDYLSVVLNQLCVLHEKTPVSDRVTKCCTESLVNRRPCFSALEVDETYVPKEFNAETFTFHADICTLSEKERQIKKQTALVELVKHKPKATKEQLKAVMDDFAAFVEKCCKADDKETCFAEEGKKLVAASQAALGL
HSA Binding listing for selected compounds.
Report the figure in % without appending any unit label.

Previously resolved entries follow.
Return reported HSA Binding; argument: COc1ccc(N2C(=O)c3[nH]nc(CCC(C)C)c3C2c2ccc(F)cc2)cc1 (centres unmarked)
98.0

Which HSA Binding is reported for this compound? COc1ccc(N2C(=O)c3[nH]nc(CC(C)C)c3C2c2ccc(OC)nc2)cc1 (centres unmarked)
92.6

Can you look up the measured HSA Binding of CC(C)Cc1n[nH]c2c1C(c1ccc(F)cc1)N(C1CCC(N(C)C)CC1)C2=O (centres unmarked) for me?
81.1

Give the measured HSA Binding of COc1ccc(N2C(=O)c3[nH]nc(CC(C)C)c3C2c2ccnnc2)cc1 (centres unmarked) .
70.5

Please look up its HSA Binding: COc1ccc(N2C(=O)c3[nH]nc(CCc4ccccc4)c3C2c2ccc(F)cc2)cc1 (centres unmarked)
98.0

Further cases:
Given the entry COc1cc(F)ccc1C1c2c(CC(C)C)n[nH]c2C(=O)N1c1ccc(N(C)C)cc1 (centres unmarked) , report its measured HSA Binding.
97.1

Which HSA Binding value belongs to CC(C)Cc1n[nH]c2c1C(c1ccc(F)cc1)N(c1ccc(-n3ccnc3)cc1)C2=O (centres unmarked) ?
96.3

What value of HSA Binding has been recorded for this entry: COc1ccc(N2C(=O)c3[nH]nc(CC(C)C)c3C2c2ccccc2Br)cc1 (centres unmarked)
97.1
